# Protocol details: In vitro cytotoxicity evaluation
# Format: cell-based
# Run parameters: human, LO2 cells
Observable: IC50 (µg/mL)
Please respond with the number in µg/mL and leave the unit unwritten.

Query IC50 for CC(=O)c1c(OCCCNCCCN2CCN(C)CC2)c2c(c3c1OC(C)(CCC=C(C)C)C=C3)OC(C)(CCC=C(C)C)C=C2 (stereo not shown) [Compound 9h]
55
